assayed.target: human recombinant PDE5 protein (Homo sapiens)
Construct: supernatant of the cell homogenate
assay.summary: Measurement of PDE5-inhibiting activity
measurement.parameters: human recombinant PDE5, [3H]-cGMP substrate; read-out: Inhibitory Activity (IC50 value) PDE 5
Let's look at some compounds and their measured IC50.
Report as a plain number; the unit µM is understood.

Cc1c(C(=O)O)sc2nc(Cc3ccc(Cl)s3)[nH]c(=O)c12 :: 6.9

Below: the item to evaluate.
Inquiry: Give its IC50 value. Item: Cc1c(C(=O)O)sc2nc(Cc3ccc(F)c(Cl)c3)[nH]c(=O)c12
Reply text: 3.42

====

Let's look at some compounds and their measured IC50.
assayed.target: human recombinant PDE9 protein (Homo sapiens)
Construct: supernatant of the cell homogenate
Sequence (O76083 whole entry): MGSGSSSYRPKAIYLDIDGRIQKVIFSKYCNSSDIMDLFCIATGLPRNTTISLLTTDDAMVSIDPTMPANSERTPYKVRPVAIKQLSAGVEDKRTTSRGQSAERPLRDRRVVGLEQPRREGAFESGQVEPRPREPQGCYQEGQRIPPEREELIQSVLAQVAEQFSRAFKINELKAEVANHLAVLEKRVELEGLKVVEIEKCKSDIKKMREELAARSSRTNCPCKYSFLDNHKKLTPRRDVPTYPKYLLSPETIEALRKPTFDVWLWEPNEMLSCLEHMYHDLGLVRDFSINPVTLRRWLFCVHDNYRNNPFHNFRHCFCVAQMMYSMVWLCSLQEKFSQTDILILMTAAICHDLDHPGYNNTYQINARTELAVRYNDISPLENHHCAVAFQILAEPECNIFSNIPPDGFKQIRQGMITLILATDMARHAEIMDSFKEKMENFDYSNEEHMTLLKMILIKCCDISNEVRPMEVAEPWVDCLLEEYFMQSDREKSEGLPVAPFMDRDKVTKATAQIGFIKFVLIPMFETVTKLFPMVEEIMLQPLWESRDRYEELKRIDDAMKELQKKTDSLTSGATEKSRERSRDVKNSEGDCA
assay.summary: Measurement of PDE9-inhibiting activity
measurement.parameters: human recombinant PDE9, [3H]-cGMP substrate; read-out: Inhibitory Activity (IC50 value) PDE 9
Report as a plain number; the unit nM is understood.

Cc1c(C(=O)O)sc2nc(Cc3ccc(Cl)s3)[nH]c(=O)c12 :: 34

Inquiry: Give its IC50 value. Item: Cc1c(C(=O)O)sc2nc(Cc3ccc(F)c(Cl)c3)[nH]c(=O)c12
Reply text: 38

Value source: patent US8377944B2
